- Tested on: IMCSzyme™ (recombinant glucuronidase)
- Assay remarks: IMCSzyme hydrolysis of opiate glucuronides
- Format: biochemical
- Test context: 65° C., 45 min
For each record, write down the corresponding Mean % Hydrolysis.
Quick note: number first, unit second.

[
  {
    "Compound": "CN1CC[C@]23c4c5ccc(O[C@@H]6O[C@H](C(=O)O)[C@@H](O)[C@H](O)[C@H]6O)c4O[C@H]2C(=O)CC[C@H]3[C@H]1C5 [Hydromorphone Glucuronide]",
    "Measured target": "IMCSzyme™ (recombinant glucuronidase)",
    "Result": "91.0%"
  },
  {
    "Compound": "CN1CC[C@]23c4c5ccc(O)c4O[C@H]2[C@@H](O[C@@H]2O[C@H](C(=O)O)[C@@H](O)[C@H](O)[C@H]2O)C=C[C@H]3[C@H]1C5 [Morphine-6-Glucuronide]",
    "Measured target": "IMCSzyme™ (recombinant glucuronidase)",
    "Result": "98.5%"
  },
  {
    "Compound": "CN1CC[C@]23c4c5ccc(O[C@@H]6O[C@H](C(=O)O)[C@@H](O)[C@H](O)[C@H]6O)c4O[C@H]2[C@@H](O)C=C[C@H]3[C@H]1C5 [Morphine-3-Glucuronide]",
    "Measured target": "IMCSzyme™ (recombinant glucuronidase)",
    "Result": "97.9%"
  }
]

Hi, could you look up Mean % Hydrolysis for each item in my list?
1. CN1CC[C@]23c4c5ccc(O[C@@H]6O[C@H](C(=O)O)[C@@H](O)[C@H](O)[C@H]6O)c4O[C@H]2C(=O)CC[C@@]3(O)[C@H]1C5 [Oxymorphone Glucuronide]
2. COc1ccc2c3c1O[C@H]1[C@@H](O[C@@H]4O[C@H](C(=O)O)[C@@H](O)[C@H](O)[C@H]4O)C=C[C@H]4[C@@H](C2)N(C)CC[C@@]341 [Codeine Glucuronide]

result:
1: 95.6%; 2: 75.5%

====

- Tested on: IMCSzyme™ (recombinant glucuronidase)
- Assay remarks: IMCSzyme hydrolysis of opiate glucuronides
- Assay type: biochemical
- Test context: 55° C., 15 min
Endpoint label: Mean % Hydrolysis (%)
Answers are plain numbers, in %.

[
  {
    "Compound": "CN1CC[C@]23c4c5ccc(O)c4O[C@H]2[C@@H](O[C@@H]2O[C@H](C(=O)O)[C@@H](O)[C@H](O)[C@H]2O)C=C[C@H]3[C@H]1C5 [Morphine-6-Glucuronide]",
    "Mean % Hydrolysis / %": 67.9
  },
  {
    "Compound": "COc1ccc2c3c1O[C@H]1[C@@H](O[C@@H]4O[C@H](C(=O)O)[C@@H](O)[C@H](O)[C@H]4O)C=C[C@H]4[C@@H](C2)N(C)CC[C@@]341 [Codeine Glucuronide]",
    "Mean % Hydrolysis / %": 40.2
  },
  {
    "Compound": "CN1CC[C@]23c4c5ccc(O[C@@H]6O[C@H](C(=O)O)[C@@H](O)[C@H](O)[C@H]6O)c4O[C@H]2[C@@H](O)C=C[C@H]3[C@H]1C5 [Morphine-3-Glucuronide]",
    "Mean % Hydrolysis / %": 99.1
  },
  {
    "Compound": "CN1CC[C@]23c4c5ccc(O[C@@H]6O[C@H](C(=O)O)[C@@H](O)[C@H](O)[C@H]6O)c4O[C@H]2C(=O)CC[C@H]3[C@H]1C5 [Hydromorphone Glucuronide]",
    "Mean % Hydrolysis / %": 80.5
  }
]

query: For CN1CC[C@]23c4c5ccc(O[C@@H]6O[C@H](C(=O)O)[C@@H](O)[C@H](O)[C@H]6O)c4O[C@H]2C(=O)CC[C@@]3(O)[C@H]1C5 [Oxymorphone Glucuronide] , what is its reported Mean % Hydrolysis?
result: 71.7

====

Provide the recorded Mean % Hydrolysis for the entries that follow.
- System: IMCSzyme™ (recombinant glucuronidase)
- Assay remarks: IMCSzyme hydrolysis of opiate glucuronides
- Assay type: biochemical
- Test context: 55° C., 45 min
Give bare numbers, in %.

[
  {
    "Compound": "CN1CC[C@]23c4c5ccc(O)c4O[C@H]2[C@@H](O[C@@H]2O[C@H](C(=O)O)[C@@H](O)[C@H](O)[C@H]2O)C=C[C@H]3[C@H]1C5 [Morphine-6-Glucuronide]",
    "Unit name": "%",
    "Mean % Hydrolysis": 95.9
  }
]

// each listed compound needs a value for Mean % Hydrolysis
1. CN1CC[C@]23c4c5ccc(O[C@@H]6O[C@H](C(=O)O)[C@@H](O)[C@H](O)[C@H]6O)c4O[C@H]2[C@@H](O)C=C[C@H]3[C@H]1C5 [Morphine-3-Glucuronide]
2. CN1CC[C@]23c4c5ccc(O[C@@H]6O[C@H](C(=O)O)[C@@H](O)[C@H](O)[C@H]6O)c4O[C@H]2C(=O)CC[C@@]3(O)[C@H]1C5 [Oxymorphone Glucuronide]

result:
1: 97.4; 2: 97.0

For every item in the list below, what is its measured Mean % Hydrolysis?
1. CN1CC[C@]23c4c5ccc(O[C@@H]6O[C@H](C(=O)O)[C@@H](O)[C@H](O)[C@H]6O)c4O[C@H]2C(=O)CC[C@H]3[C@H]1C5 [Hydromorphone Glucuronide]
2. COc1ccc2c3c1O[C@H]1[C@@H](O[C@@H]4O[C@H](C(=O)O)[C@@H](O)[C@H](O)[C@H]4O)C=C[C@H]4[C@@H](C2)N(C)CC[C@@]341 [Codeine Glucuronide]

result:
93.3
76.6

====

- Tested on: IMCSzyme™ (recombinant glucuronidase)
- Assay remarks: IMCSzyme hydrolysis of opiate glucuronides
- Type: biochemical
- Test context: 55° C., 60 min
Endpoint label: Mean % Hydrolysis (%)
Answers are plain numbers, in %.

Some solved cases for reference:
[
  {
    "Molecule": "CN1CC[C@]23c4c5ccc(O[C@@H]6O[C@H](C(=O)O)[C@@H](O)[C@H](O)[C@H]6O)c4O[C@H]2C(=O)CC[C@@]3(O)[C@H]1C5 [Oxymorphone Glucuronide]",
    "Unit name": "%",
    "Result number": 101.2
  },
  {
    "Molecule": "CN1CC[C@]23c4c5ccc(O)c4O[C@H]2[C@@H](O[C@@H]2O[C@H](C(=O)O)[C@@H](O)[C@H](O)[C@H]2O)C=C[C@H]3[C@H]1C5 [Morphine-6-Glucuronide]",
    "Unit name": "%",
    "Result number": 91.7
  },
  {
    "Molecule": "CN1CC[C@]23c4c5ccc(O[C@@H]6O[C@H](C(=O)O)[C@@H](O)[C@H](O)[C@H]6O)c4O[C@H]2C(=O)CC[C@H]3[C@H]1C5 [Hydromorphone Glucuronide]",
    "Unit name": "%",
    "Result number": 93.8
  },
  {
    "Molecule": "CN1CC[C@]23c4c5ccc(O[C@@H]6O[C@H](C(=O)O)[C@@H](O)[C@H](O)[C@H]6O)c4O[C@H]2[C@@H](O)C=C[C@H]3[C@H]1C5 [Morphine-3-Glucuronide]",
    "Unit name": "%",
    "Result number": 99.9
  }
]

Next molecule, Mean % Hydrolysis to be filled in.
query: Look up Mean % Hydrolysis for this molecule: COc1ccc2c3c1O[C@H]1[C@@H](O[C@@H]4O[C@H](C(=O)O)[C@@H](O)[C@H](O)[C@H]4O)C=C[C@H]4[C@@H](C2)N(C)CC[C@@]341 [Codeine Glucuronide]
result: 81.8

====

Hi there, I'd appreciate the recorded Mean % Hydrolysis for every entry that follows.
- Test system: IMCSzyme™ (recombinant glucuronidase)
- Assay remarks: IMCSzyme hydrolysis of opiate glucuronides
- Format: biochemical
- Test context: 65° C., 60 min
One number for each entry, in %.

[
  {
    "Compound": "CN1CC[C@]23c4c5ccc(O[C@@H]6O[C@H](C(=O)O)[C@@H](O)[C@H](O)[C@H]6O)c4O[C@H]2C(=O)CC[C@@]3(O)[C@H]1C5 [Oxymorphone Glucuronide]",
    "Result number": 100.0
  }
]

Give measured Mean % Hydrolysis for every item shown.
1. CN1CC[C@]23c4c5ccc(O)c4O[C@H]2[C@@H](O[C@@H]2O[C@H](C(=O)O)[C@@H](O)[C@H](O)[C@H]2O)C=C[C@H]3[C@H]1C5 [Morphine-6-Glucuronide]
2. CN1CC[C@]23c4c5ccc(O[C@@H]6O[C@H](C(=O)O)[C@@H](O)[C@H](O)[C@H]6O)c4O[C@H]2[C@@H](O)C=C[C@H]3[C@H]1C5 [Morphine-3-Glucuronide]
3. COc1ccc2c3c1O[C@H]1[C@@H](O[C@@H]4O[C@H](C(=O)O)[C@@H](O)[C@H](O)[C@H]4O)C=C[C@H]4[C@@H](C2)N(C)CC[C@@]341 [Codeine Glucuronide]
4. CN1CC[C@]23c4c5ccc(O[C@@H]6O[C@H](C(=O)O)[C@@H](O)[C@H](O)[C@H]6O)c4O[C@H]2C(=O)CC[C@H]3[C@H]1C5 [Hydromorphone Glucuronide]

result:
1. 97.9
2. 97.6
3. 79.8
4. 91.5
